assay-method-text: qHTS Assay for Lipid Storage Modulators in Drosophila S3 Cells
test-conditions: BODIPY lipid droplet fluorescence, 18-24 h, cells fed with added oleic acid; series mostly up to 46.1 µM
Source text: NIH Molecular Libraries Probe Production Centers Network [MLPCN] NIH Chemical Genomics Center [NCGC] […] Triacsin C (Sigma-Aldrich T-4540), an inhibitor of long-chain fatty acyl CoA synthetase that blocks synthesis of triglycerides, was used as a positive control for lipid under-storage. […] Fluorescence was detected by excitation of the fluorophores with a 488-nm laser on an Acumen Explorer (TTP Lab Tech). […] Cells were detected using channel 3 (575-640 nm) with 5-um width and 100-um depth filters. […]
In all, about 320,000 compounds went through this assay and about 2,100 (0.66%) were called active. Roughly 53% stayed inconclusive and do not appear here. Calls come from the whole dose curve; as a rule, active = well fitted inhibition curve with a large enough effect in the signal ratio, with a control signal flat (not every such curve was filed as active); inconclusive = small, poorly fitted or top-dose-only effect, or effect the other way, or a change in a side signal; inactive = flat fitted curve, though single readings scatter; the % refers to the signal ratio. Shown is part of a subset that was picked to be rich in actives.
Outcomes: active, inactive

# compound, answer-label
rows = [
    ("S=c1[nH]nc(CNc2cccc(Cl)c2)o1", "inactive"),
    ("CC(C)CC(=O)NC(c1ccccc1)c1c(O)ccc2ccccc12 (configuration not stated)", "inactive"),
    ("COCCNC(=O)CN1CCC(NC(=O)c2ccco2)CC1", "inactive"),
    ("Cc1cc(C)c2c(=O)cc(C(F)(F)F)oc2n1", "inactive"),
    ("Cc1ccc(C(NC(=O)C2CCCCC2)c2c(O)ccc3ccccc23)cc1 (configuration not stated)", "active"),
    ("O=C(CS(=O)c1ccccc1[N+](=O)[O-])Oc1ccc(Br)cc1 (configuration not stated)", "inactive"),
    ("CN(C)CCCNC(=O)C1CCNCC1", "inactive"),
    ("Cc1cc(NC(=O)c2ccco2)ccc1NC(=O)c1ccco1", "inactive"),
    ("CS(=O)(=O)c1ccc(S(=O)CC(=O)OCc2ccccc2)c([N+](=O)[O-])c1 (configuration not stated)", "active"),
    ("C=CCn1cccc(C(=O)Nc2ccc(SC)cc2)c1=O", "active"),
    ("CCOC(=O)Cc1csc(NS(=O)(=O)c2ccc(C(F)(F)F)cc2)n1", "inactive"),
    ("O=C(c1ccccc1)N1CCn2c1nc1ccccc12", "inactive"),
]
